Test system: MCF7
Method Notes: Antiproliferative activity against human MCF7 cells assessed as reduction in cell viability after 72 hrs under normoxic condition by MTT assay
Cond: MCF7, 72 h
pIC50: −log10 of the molar value.
Assay Endpoint: pIC50

- Cc1ccc(N2C(=O)C(Cc3ccc(Cl)cc3)=C(Nc3ccc(S(N)(=O)=O)cc3)C2=O)cc1: 4.96
- Cc1ccc(N2C(=O)C(Cc3ccc(Cl)cc3)=C(Nc3cccc(S(N)(=O)=O)c3)C2=O)cc1: 4.83

* * *

Assayed System: Carbonic anhydrase 9 (Homo sapiens)
Method Notes: Inhibition of recombinant human CA9 pre-incubated for 15 mins prior to testing by phenol red-based stopped-flow CO2 hydration assay
pKi: −log10 of the molar value.
Assay Endpoint: pKi

• NS(=O)(=O)c1ccc(NC2CCN(c3ccccc3)C2=O)cc1 (stereo unspecified) = 8.02
• CCOC(=O)C(C(=O)Nc1cccc(S(N)(=O)=O)c1)C(C)C (stereo unspecified) = 7.15
• CC(C)(C)C(=O)CNc1cccc(S(N)(=O)=O)c1 = 7.38
• CCOC(=O)C(Nc1ccc(S(N)(=O)=O)cc1)c1ccc(Cl)cc1 (stereo unspecified) = 7.27
• CC(C)C(C(=O)Nc1ccc(S(N)(=O)=O)cc1)C(=O)c1ccccc1 (stereo unspecified) = 7.52
• CCOC(=O)C(C(=O)Nc1ccc(S(N)(=O)=O)cc1)C(C)C (stereo unspecified) = 7.49
• CCN(CC)C(=O)CNc1cccc(S(N)(=O)=O)c1 = 7.34
• CCOC(=O)C(Nc1ccc(S(N)(=O)=O)cc1)C(=O)OCC = 7.28
• NS(=O)(=O)c1cccc(NCC(=O)N2CCN(Cc3ccc(Cl)cc3)CC2)c1 = 6.94
• CCOC(=O)C(Nc1ccc(S(N)(=O)=O)cc1)C(=O)c1ccccc1 (stereo unspecified) = 7.74
• NS(=O)(=O)c1ccc(NC2CCN(c3nccs3)C2=O)cc1 (stereo unspecified) = 7.43

Reference source for all entries: ChEMBL document CHEMBL4811239
